system: Staphylococcus epidermidis H 6966/08; assay: Antibacterial microdilution broth method, S. epidermidis; type: cell-based; conditions: Staphylococcus epidermidis, H6966/08; S. epidermidis; 24 h incubation; read-out: MIC SE 24 h
Experimental Endpoint: MIC (µM)

Compound	System Tested	Experimental Endpoint	Value Units	Comparison Symbol	Recorded Result
O=C(O)c1ccc(N=Cc2cc(I)cc(I)c2O)cc1	Staphylococcus epidermidis H 6966/08	MIC	µM	=	62.5
O=C(O)c1ccc(N=Cc2ccc(O)cc2)cc1	Staphylococcus epidermidis H 6966/08	MIC	µM	>	500
O=C(O)c1ccc(N=Cc2cc(O)ccc2O)cc1	Staphylococcus epidermidis H 6966/08	MIC	µM	=	250
O=C(O)c1ccc(N=Cc2cc(Cl)cc(I)c2O)cc1	Staphylococcus epidermidis H 6966/08	MIC	µM	=	31.2
COc1ccc(O)c(C=Nc2ccc(C(=O)O)cc2)c1	Staphylococcus epidermidis H 6966/08	MIC	µM	=	500
O=C(O)c1ccc(N=Cc2ccccc2O)cc1	Staphylococcus epidermidis H 6966/08	MIC	µM	>	500
Nc1ccc(C(=O)O)cc1	Staphylococcus epidermidis H 6966/08	MIC	µM	>	500
O=C(O)c1ccc(NCc2ccccc2O)cc1 [1u, 4-[(2-Hydroxybenzyl)amino]benzoic acid]	Staphylococcus epidermidis H 6966/08	MIC	µM	>	500
Cc1ccc(O)c(C=Nc2ccc(C(=O)O)cc2)c1	Staphylococcus epidermidis H 6966/08	MIC	µM	=	250
O=C(O)c1ccc(N=Cc2cc(Cl)ccc2O)cc1	Staphylococcus epidermidis H 6966/08	MIC	µM	=	62.5
O=C(O)c1ccc(N=Cc2cc(Cl)cc(Br)c2O)cc1	Staphylococcus epidermidis H 6966/08	MIC	µM	=	15.6
O=C(O)c1ccc(N=Cc2ccc([N+](=O)[O-])o2)cc1	Staphylococcus epidermidis H 6966/08	MIC	µM	=	125
COc1ccccc1C=Nc1ccc(C(=O)O)cc1	Staphylococcus epidermidis H 6966/08	MIC	µM	>	500
O=C(O)c1ccc(N=Cc2c(O)cccc2Cl)cc1	Staphylococcus epidermidis H 6966/08	MIC	µM	>	500
O=C(O)c1ccc(N=Cc2cc(Cl)cc(Cl)c2O)cc1	Staphylococcus epidermidis H 6966/08	MIC	µM	=	250
CC(C)(C)c1ccc(O)c(C=Nc2ccc(C(=O)O)cc2)c1	Staphylococcus epidermidis H 6966/08	MIC	µM	>	500
O=C(O)c1ccc(N=Cc2cc(Br)ccc2O)cc1	Staphylococcus epidermidis H 6966/08	MIC	µM	=	62.5
O=C(O)c1ccc(N=Cc2ccc(Cl)cc2O)cc1	Staphylococcus epidermidis H 6966/08	MIC	µM	>	500
O=C(O)c1ccc(N=Cc2cc(I)ccc2O)cc1	Staphylococcus epidermidis H 6966/08	MIC	µM	=	62.5
O=C(O)c1ccc(N=Cc2cc([N+](=O)[O-])ccc2O)cc1	Staphylococcus epidermidis H 6966/08	MIC	µM	=	250
O=C(O)c1ccc(N=Cc2cccc(Cl)c2O)cc1	Staphylococcus epidermidis H 6966/08	MIC	µM	=	500
O=C(O)c1ccc(N=Cc2cc(F)ccc2O)cc1	Staphylococcus epidermidis H 6966/08	MIC	µM	>	500

----------
Reported MIC is given for each of the following compounds.
tested on: M. kansasii 6509/96 (clinical isolate); assay: Antimycobacterial micromethod in Šula's medium, M. kansasii 6509/96; format: cell-based; conditions: Mycobacterium kansasii, 336 h; 14 days incubation at 37 °C; read-out: MIC M. kansasii 6509/96 14 d
Experimental Endpoint: MIC

Compound	Experimental Endpoint	Recorded Result
O=C(O)c1ccc(N=Cc2ccc([N+](=O)[O-])o2)cc1	MIC	125 µM
Cc1ccc(O)c(C=Nc2ccc(C(=O)O)cc2)c1	MIC	500 µM
Nc1ccc(C(=O)O)cc1	MIC	1000 µM
O=C(O)c1ccc(N=Cc2ccc(O)cc2)cc1	MIC	1000 µM
COc1ccccc1C=Nc1ccc(C(=O)O)cc1	MIC	1000 µM
O=C(O)c1ccc(N=Cc2cc(Cl)cc(Cl)c2O)cc1	MIC	500 µM
O=C(O)c1ccc(N=Cc2c(O)cccc2Cl)cc1	MIC	250 µM
O=C(O)c1ccc(N=Cc2ccc(Cl)cc2O)cc1	MIC	250 µM
O=C(O)c1ccc(N=Cc2cc(O)ccc2O)cc1	MIC	1000 µM
O=C(O)c1ccc(N=Cc2cc(Cl)cc(Br)c2O)cc1	MIC	500 µM
COc1ccc(O)c(C=Nc2ccc(C(=O)O)cc2)c1	MIC	500 µM
O=C(O)c1ccc(N=Cc2cc(Cl)cc(I)c2O)cc1	MIC	250 µM
O=C(O)c1ccc(N=Cc2ccccc2O)cc1	MIC	1000 µM
O=C(O)c1ccc(N=Cc2cc(F)ccc2O)cc1	MIC	500 µM
NNC(=O)c1ccncc1 [INH, isoniazid, reference compound]	MIC	8 µM
O=C(O)c1ccc(N=Cc2cc(Cl)ccc2O)cc1	MIC	500 µM
O=C(O)c1ccc(N=Cc2cc([N+](=O)[O-])ccc2O)cc1	MIC	500 µM
O=C(O)c1ccc(N=Cc2cccc(Cl)c2O)cc1	MIC	500 µM
O=C(O)c1ccc(N=Cc2cc(I)ccc2O)cc1	MIC	250 µM
O=C(O)c1ccc(NCc2ccccc2O)cc1 [1u, 4-[(2-Hydroxybenzyl)amino]benzoic acid]	MIC	1000 µM
CC(C)(C)c1ccc(O)c(C=Nc2ccc(C(=O)O)cc2)c1	MIC	250 µM
O=C(O)c1ccc(N=Cc2cc(Br)ccc2O)cc1	MIC	500 µM
O=C(O)c1ccc(N=Cc2cc(I)cc(I)c2O)cc1	MIC	250 µM

----------
system: Escherichia coli ATCC 25922, CCM 3954; assay: Antibacterial microdilution broth method, E. coli; format: cell-based; details: Escherichia coli, 24 h incubation, read-out: MIC EC 24 h
Experimental Endpoint: MIC

Molecule	System Tested	Recorded Result
O=C(O)c1ccc(N=Cc2ccc(Cl)cc2O)cc1 [1l]	Escherichia coli ATCC 25922, CCM 3954	> 500 µM
O=C(O)c1ccc(N=Cc2cc([N+](=O)[O-])ccc2O)cc1 [1f]	Escherichia coli ATCC 25922, CCM 3954	> 500 µM
O=C(O)c1ccc(N=Cc2cc(Br)ccc2O)cc1 [1d]	Escherichia coli ATCC 25922, CCM 3954	> 250 µM
Cc1ccc(O)c(C=Nc2ccc(C(=O)O)cc2)c1 [1g]	Escherichia coli ATCC 25922, CCM 3954	> 500 µM
O=C(O)c1ccc(N=Cc2ccccc2O)cc1 [1a]	Escherichia coli ATCC 25922, CCM 3954	> 500 µM
O=C(O)c1ccc(N=Cc2cccc(Cl)c2O)cc1 [1m]	Escherichia coli ATCC 25922, CCM 3954	> 500 µM
O=C(O)c1ccc(NCc2ccccc2O)cc1 [1u, 4-[(2-Hydroxybenzyl)amino]benzoic acid]	Escherichia coli ATCC 25922, CCM 3954	> 500 µM
O=C(O)c1ccc(N=Cc2cc(I)cc(I)c2O)cc1 [1q]	Escherichia coli ATCC 25922, CCM 3954	500 µM
CC(C)(C)c1ccc(O)c(C=Nc2ccc(C(=O)O)cc2)c1 [1j]	Escherichia coli ATCC 25922, CCM 3954	> 500 µM
O=C(O)c1ccc(N=Cc2c(O)cccc2Cl)cc1 [1k]	Escherichia coli ATCC 25922, CCM 3954	> 500 µM
O=C(O)c1ccc(N=Cc2cc(Cl)cc(Br)c2O)cc1 [1o]	Escherichia coli ATCC 25922, CCM 3954	500 µM

----------
system: Trichophyton interdigitale 445; assay: Antifungal microdilution broth method, T. interdigitale; type: cell-based; conditions: 72 h, read-out: MIC TI 72 h
Reported log10 of MIC is given for each of the following compounds.
Experimental Endpoint: log10 of MIC (log10 of the value in µM)

Molecule	log10 of MIC
O=C(O)c1ccc(N=Cc2cc(Cl)cc(Cl)c2O)cc1	2.40
O=C(O)c1ccc(N=Cc2cc(I)cc(I)c2O)cc1	0.89
O=C(O)c1ccc(N=Cc2cc([N+](=O)[O-])ccc2O)cc1	2.70
O=C(O)c1ccc(N=Cc2cc(Cl)cc(Br)c2O)cc1	1.80
O=C(O)c1ccc(N=Cc2ccc([N+](=O)[O-])o2)cc1	2.40
O=C(O)c1ccc(N=Cc2cc(Cl)ccc2O)cc1	2.10
O=C(O)c1ccc(N=Cc2cc(Cl)cc(I)c2O)cc1	0.89
O=C(O)c1ccc(N=Cc2ccc(Cl)cc2O)cc1	2.70
O=C(O)c1ccc(N=Cc2cc(I)ccc2O)cc1	1.49
O=C(O)c1ccc(N=Cc2c(O)cccc2Cl)cc1	2.10
O=C(O)c1ccc(N=Cc2cc(Br)ccc2O)cc1	1.80
O=C(O)c1ccc(N=Cc2cccc(Cl)c2O)cc1	2.10

----------
System: Lichtheimia corymbifera 272
Assay: Antifungal microdilution broth method, L. corymbifera
Assay type: cell-based
Conditions: 24 h, read-out: MIC LC 24 h
Description: The antifungal properties were evaluated against five yeast strains, namely: Candida albicans ATCC 44859, Candida tropicalis 156, Candida krusei […], Candida glabrata 20/I, Trichosporon […] 1188 and three strains of filamentous fungi: Aspergillus fumigatus 231, Lichtheimia corymbifera 272, and Trichophyton interdigitale 445. […] For the results to be valid, the difference in MIC determined from two parallel measurements must not be greater than one step on the dilution scale. […]

Compound	MIC
Cc1ccc(O)c(C=Nc2ccc(C(=O)O)cc2)c1	> 125 µM
O=C(O)c1ccc(N=Cc2cc([N+](=O)[O-])ccc2O)cc1	500 µM
O=C(O)c1ccc(N=Cc2cc(F)ccc2O)cc1	> 500 µM
O=C(O)c1ccc(N=Cc2cc(Cl)ccc2O)cc1	> 125 µM
COc1ccccc1C=Nc1ccc(C(=O)O)cc1	> 500 µM
O=C(O)c1ccc(N=Cc2ccc(O)cc2)cc1	> 500 µM
O=C(O)c1ccc(N=Cc2ccc([N+](=O)[O-])o2)cc1	> 500 µM
O=C(O)c1ccc(N=Cc2ccc(Cl)cc2O)cc1	> 500 µM
O=C(O)c1ccc(N=Cc2cc(I)ccc2O)cc1	> 125 µM
O=C(O)c1ccc(N=Cc2c(O)cccc2Cl)cc1	> 125 µM
O=C(O)c1ccc(N=Cc2cc(Cl)cc(Br)c2O)cc1	500 µM
O=C(O)c1ccc(N=Cc2cccc(Cl)c2O)cc1	500 µM
CC(C)(C)c1ccc(O)c(C=Nc2ccc(C(=O)O)cc2)c1	> 500 µM
O=C(O)c1ccc(N=Cc2cc(Cl)cc(Cl)c2O)cc1	500 µM
O=C(O)c1ccc(NCc2ccccc2O)cc1 [1u, 4-[(2-Hydroxybenzyl)amino]benzoic acid]	> 500 µM
O=C(O)c1ccc(N=Cc2cc(Br)ccc2O)cc1	> 250 µM
